- system_tested: 5-HT1A receptor (Rattus norvegicus, UniProt P19327)
- Construct: Brains were rapidly removed and placed on ice; from tissue; host or cells: Sprague–Dawley rat hippocampus membranes
- assay_procedure: 5-HT1A receptor activation in the [35S]GTP-γ-S assay (agonist and antagonist mode)
- Assay type: biochemical
- condition_summary: read-out: 5-HT1A Receptor Inhibition IC50 (nM, 95% CI)
Below: a set of entries, each annotated with reported IC50.

{"compound_structure": "CC(=O)c1cc2c(C)cc(=O)oc2cc1OCCCCN1CCN(c2ccc(Br)cc2)CC1", "unit_symbol": "nM", "IC50": 63200}
{"compound_structure": "CC(=O)c1cc2c(C)cc(=O)oc2cc1OCCCCN1CCN(c2ccccc2Br)CC1", "unit_symbol": "nM", "IC50": 5180}
{"compound_structure": "CC(=O)c1cc2c(C)cc(=O)oc2cc1OCCCCN1CCN(c2cc(C)ccc2C)CC1", "unit_symbol": "nM", "IC50": 21900}
{"compound_structure": "COc1ccccc1N1CCN(CCCCOc2cc3oc(=O)cc(C)c3cc2C(C)=O)CC1", "unit_symbol": "nM", "IC50": 301}
{"compound_structure": "CC(=O)c1cc2c(C)cc(=O)oc2cc1OCCCCN1CCN(c2ccc([N+](=O)[O-])cc2)CC1", "unit_symbol": "nM", "IC50": 53400}
{"compound_structure": "CC(=O)c1cc2c(C)cc(=O)oc2cc1OCCCCN1CCN(c2ccncc2)CC1", "unit_symbol": "nM", "IC50": 25000}
{"compound_structure": "CC(=O)c1cc2c(C)cc(=O)oc2cc1OCCCCN1CCOCC1", "unit_symbol": "nM", "IC50": 93400}

---

Below: a set of entries, each annotated with reported Emax.
- system_tested: 5-HT1A receptor (Rattus norvegicus, UniProt P19327)
- Construct: Brains were rapidly removed and placed on ice; from tissue; host or cells: Sprague–Dawley rat hippocampus membranes
- Sequence (P19327 1-422): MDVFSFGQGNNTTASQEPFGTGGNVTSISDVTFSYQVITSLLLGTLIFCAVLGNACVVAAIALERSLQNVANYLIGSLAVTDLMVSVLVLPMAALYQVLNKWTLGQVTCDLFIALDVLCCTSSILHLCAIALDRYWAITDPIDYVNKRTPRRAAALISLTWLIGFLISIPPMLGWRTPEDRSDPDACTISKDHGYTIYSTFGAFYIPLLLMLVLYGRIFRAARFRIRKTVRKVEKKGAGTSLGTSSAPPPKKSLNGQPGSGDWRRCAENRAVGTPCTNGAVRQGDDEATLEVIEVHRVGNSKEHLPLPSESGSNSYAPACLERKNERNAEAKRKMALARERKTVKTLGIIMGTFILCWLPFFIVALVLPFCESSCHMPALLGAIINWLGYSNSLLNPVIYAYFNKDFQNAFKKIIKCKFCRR
- assay_procedure: 5-HT1A receptor activation in the [35S]GTP-γ-S assay (agonist and antagonist mode)
- Type: biochemical
- condition_summary: agonist mode, efficacy ± SEM

{"compound_structure": "CC(=O)c1cc2c(C)cc(=O)oc2cc1OCCCCN1CCN(c2ccccc2C#N)CC1", "Emax, %": 124}
{"compound_structure": "CC(=O)c1cc2c(C)cc(=O)oc2cc1OCCCCN1CCN(c2ccccc2Cl)CC1", "Emax, %": 130}
{"compound_structure": "CC(=O)c1cc2c(C)cc(=O)oc2cc1OCCCCN1CCN(c2cccc(Cl)c2Cl)CC1", "Emax, %": 133}
{"compound_structure": "COc1cccc(N2CCN(CCCCOc3cc4oc(=O)cc(C)c4cc3C(C)=O)CC2)c1", "Emax, %": 146}
